System: Botrytis cinerea
Experiment: Direct protectant activity against broad bean grey mould (BCB)
Assay type: in vivo
Conditions: direct protectant foliar spray, 600 ppm, 4 days
Method: (c) Direct protectant activity against broad bean grey mould (Botrytis cinerea; BCB) The test is a direct protectant foliar spray. […] Disease is assessed 4 days after inoculation, based on the percentage of leaf surface area covered by lesions. The extent of disease control in all the above tests is expressed as a rating compared with either an untreated control or a diluent-sprayed-control, according to the criteria: […]
MEASURED ATTRIBUTE: disease control rating BCB

COMPOUND | VALUE OBSERVED
CC1CCN(C2COC3(CCC(C(C)(C)C)CC3)C2)CC1 (stereo not drawn) [Compound 19] | 0 (less than 50% disease control)

The compound CCCCCCCCNC1COC2(C1)C1CC3CC(C1)CC2C3 (stereo not drawn) [Compound 115] on Botrytis cinerea: disease control rating BCB was 0 (less than 50% disease control)

The compound Cc1ccc(CNC2COC3(CCC(C(C)(C)C)CC3)C2)cc1 (stereo not drawn) [Compound 28] on Botrytis cinerea: disease control rating BCB was 0 (less than 50% disease control)

The compound CCCN(CC1CCCCC1)C1COC2(CCC(C(C)(C)C)CC2)C1 (stereo not drawn) [Compound 93] on Botrytis cinerea: disease control rating BCB was 0 (less than 50% disease control)

The compound CCCCCCCCCCCCCCCCNC1COC2(CCC(C(C)(C)C)CC2)C1 (stereo not drawn) [Compound 45] on Botrytis cinerea: disease control rating BCB was 0 (less than 50% disease control)

The compound CCN(CC)C1COC2(CCC(C(C)(C)C)CC2)C1 (stereo not drawn) [Compound 68] on Botrytis cinerea: disease control rating BCB was 0 (less than 50% disease control)

----------
system: Erysiphe graminis f.sp. hordei; assay: Activity against barley powdery mildew, direct therapeutic (EGT); assay type: in vivo; conditions: direct therapeutic foliar spray, 600 ppm, up to 7 days
MEASURED ATTRIBUTE: disease control rating EGT

COMPOUND | VALUE OBSERVED
CC1CN(C2COC3(CCC(C(C)(C)C)CC3)C2)CC(C)O1 (centres unmarked) | 1 (about 50-80% disease control)

For reference, reported disease control rating EGT for CCN(CC1CCCCC1)C1COC2(CCC(C(C)(C)C)CC2)C1 (centres unmarked) stands at 2 (greater than 80% disease control)

For reference, reported disease control rating EGT for CCCCCCN(C)C1COC2(CCC(C(C)(C)C)CC2)C1 (centres unmarked) stands at 2 (greater than 80% disease control)

For reference, reported disease control rating EGT for CC(C)(C)C1CCC2(CC1)CC(CCN)CO2.Cl (centres unmarked) stands at 0 (less than 50% disease control)

For reference, reported disease control rating EGT for CC(C)(C)C1CCC2(CC1)CC(N1CCCC1)CO2 (centres unmarked) stands at 2 (greater than 80% disease control)

----------
tested on: Botrytis cinerea; test: Direct protectant activity against broad bean grey mould (BCB); assay type: in vivo; conditions: direct protectant foliar spray, 600 ppm, 4 days
MEASURED ATTRIBUTE: disease control rating BCB

The cases that follow already have their disease control rating BCB on record.
MOLECULE | MEASURED ATTRIBUTE | VALUE OBSERVED
CN(CC1(C)CCCCC1)C1COC2(CCC(C(C)(C)C)CC2)C1 (stereo not shown) | disease control rating BCB | 0 (less than 50% disease control)
CCCCC(CC)NC1COC2(CCC(C(C)(C)C)CC2)C1 (stereo not shown) | disease control rating BCB | 1 (about 50-80% disease control)
CC(C)(C)C1CCC2(CC1)CC(NC1C3CC4CC(C3)CC1C4)CO2 (stereo not shown) | disease control rating BCB | 0 (less than 50% disease control)

For reference, reported disease control rating BCB for CCCCCCNC1COC2(CCC(C(C)(C)C)CC2)C1 (stereo not shown) [Compound 38] stands at 0 (less than 50% disease control)

For reference, reported disease control rating BCB for CCCCCCNC1COC2(CCC(C(C)(C)C)CC2)C1 (stereo not shown) [Compound 2] stands at 0 (less than 50% disease control)

For reference, reported disease control rating BCB for CC(C)(C)C1CCC2(CC1)CC(NCC1CCCCC1)CO2 (stereo not shown) stands at 2 (greater than 80% disease control)

For reference, reported disease control rating BCB for CCCCCC(C)NC1COC2(CCC(C(C)(C)C)CC2)C1 (stereo not shown) stands at 2 (greater than 80% disease control)

For reference, reported disease control rating BCB for CCCCCN(CC)C1COC2(CCC(C(C)(C)C)CC2)C1 (stereo not shown) stands at 0 (less than 50% disease control)

For reference, reported disease control rating BCB for CC1CC(C)CN(C2COC3(CCC(c4ccccc4)CC3)C2)C1 (stereo not shown) stands at 0 (less than 50% disease control)

For reference, reported disease control rating BCB for CC(C)(C)C1CCC2(CC1)CC(NCc1cccnc1)CO2 (stereo not shown) stands at 0 (less than 50% disease control)

For reference, reported disease control rating BCB for CCCCCCCNC1COC2(CCC(C(C)(C)C)CC2)C1 (stereo not shown) stands at 1 (about 50-80% disease control)

For reference, reported disease control rating BCB for CCCCCN(C(C)C)C1COC2(CCC(C(C)(C)C)CC2)C1 (stereo not shown) stands at 0 (less than 50% disease control)

For reference, reported disease control rating BCB for CCCCCCN(C)C1COC2(CCC(C(C)(C)C3CCCCC3)CC2)C1 (stereo not shown) stands at 0 (less than 50% disease control)

The origin of these recorded values is patent US5591741A.
